System: CB1-nanodisc
TEST METHOD NOTES: Octet affinity assay with CB1-nanodisc
Format: binding, human
CONDITION PARAMETERS: 1:1 Langmuir model
MEASUREMENT KIND: Octet (nanodisc) k off
Output should be the measured figure followed by the unit it is expressed in.

Can you share its Octet (nanodisc) k off? I mean this molecule: LIBC527919-1: LC-swapped affinity-matured 10D10 variant; HV SEQ ID NO: 252, LV SEQ ID NO: 251 (antibody, V domains shown) VH: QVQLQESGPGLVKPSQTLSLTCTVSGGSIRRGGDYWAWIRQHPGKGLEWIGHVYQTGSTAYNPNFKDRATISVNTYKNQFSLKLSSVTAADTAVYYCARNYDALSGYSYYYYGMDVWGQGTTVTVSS VL: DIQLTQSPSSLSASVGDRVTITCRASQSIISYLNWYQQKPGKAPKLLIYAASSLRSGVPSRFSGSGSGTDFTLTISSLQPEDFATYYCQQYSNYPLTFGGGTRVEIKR
0.00339 s⁻¹

Okay, and LIBC527997-1: LC-swapped affinity-matured 10D10 variant; HV SEQ ID NO: 226, LV SEQ ID NO: 225 (antibody, V domains shown) VH: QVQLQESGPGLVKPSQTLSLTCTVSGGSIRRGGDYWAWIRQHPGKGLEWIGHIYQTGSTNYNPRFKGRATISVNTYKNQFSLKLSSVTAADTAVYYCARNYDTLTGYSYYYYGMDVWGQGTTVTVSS VL: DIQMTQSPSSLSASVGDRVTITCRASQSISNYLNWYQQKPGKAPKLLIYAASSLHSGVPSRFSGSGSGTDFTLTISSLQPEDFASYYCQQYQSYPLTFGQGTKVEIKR ?
0.00136 s⁻¹

Okay, and LIBC523661-1: cognate affinity-matured 10D10 variant; HV SEQ ID NO: 98, LV SEQ ID NO: 97 (antibody, V domains shown) VH: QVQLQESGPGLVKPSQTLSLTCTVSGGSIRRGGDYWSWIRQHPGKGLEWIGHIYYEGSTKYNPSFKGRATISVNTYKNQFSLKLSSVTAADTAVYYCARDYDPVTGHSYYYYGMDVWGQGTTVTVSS VL: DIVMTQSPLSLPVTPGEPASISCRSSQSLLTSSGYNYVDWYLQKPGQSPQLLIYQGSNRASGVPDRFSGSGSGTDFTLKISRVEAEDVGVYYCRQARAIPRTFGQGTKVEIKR ?
0.00275 s⁻¹

Source: patent US20250277029A1
